Where do these numbers come from? They come from PubChem BioAssay AID2060492.

Parameter: viability, T/C. Scope: all listed entries.
- System: 695427-040-R-J1-PDC complex spheroids, viability percent T/C;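 also: spheroids exposed to compounds for seven days before readout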
- ASSAY COMMENT: Anticancer human tumor 695427-040-R-J1-PDC patient-derived colon adenocarcinoma cell line growth inhibition [GQUAD]
- CONDITION SUMMARY: second compound 0.1 µM; first compound 0.1 µM; hits give low values

Solved entries:
CC(C)(O)C1CCC(Nc2ccc3ncc(-c4cccc(C(F)(F)F)c4)n3n2)CC1 (stereo not given) + CN(C)c1ccc(Nc2c3ccc(NC(=O)CCN4CCCC4)cc3nc3cc(NC(=O)CCN4CCCC4)ccc23)cc1 ... 97%
O=C(c1cc(Cc2n[nH]c(=O)c3ccccc23)ccc1F)N1CCN(C(=O)C2CC2)CC1 + Cc1[nH]c2ccc(F)cc2c1-c1nc2c3cccnc3c3ncccc3c2[nH]1 ... 93.4%
C=CC(=O)N1CCN(c2nc(=O)n(-c3c(C)ccnc3C(C)C)c3nc(-c4c(O)cccc4F)c(F)cc23)C(C)C1 (stereo not given) + Cc1[nH]c2ccc(F)cc2c1-c1nc2c3cccnc3c3ncccc3c2[nH]1 ... 87.6%
O=C(c1cc(Cc2n[nH]c(=O)c3ccccc23)ccc1F)N1CCN(C(=O)C2CC2)CC1 + Cc1cnc(CNC(=O)c2c(=O)c3ccc(N4CCCN(C)CC4)nc3n3c2sc2ccccc23)cn1 ... 79%
CCCS(=O)(=O)Nc1ccc(F)c(C(=O)c2c[nH]c3ncc(-c4ccc(Cl)cc4)cc23)c1F + CN(C)c1ccc(Nc2c3ccc(NC(=O)CCN4CCCC4)cc3nc3cc(NC(=O)CCN4CCCC4)ccc23)cc1 ... 94.5%
CC(C)n1c(=O)n(C)c2cnc3cc(F)c(-c4ccc(OCCCN5CCCCC5)nc4)cc3c21 + Cc1cnc(CNC(=O)c2c(=O)c3ccc(N4CCCN(C)CC4)nc3n3c2sc2ccccc23)cn1 ... 76.8%

Task: I'm curious: which viability, T/C was measured for Cc1cccc(N(C)C(=O)C2C(O)CCN2c2nc(C)cc(C(F)(F)F)c2C#N)c1 (stereo not given) + Cc1[nH]c2ccc(F)cc2c1-c1nc2c3cccnc3c3ncccc3c2[nH]1 tested on 695427-040-R-J1-PDC complex spheroids, viability percent T/C?;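 also: spheroids exposed to compounds for seven days before readout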
Result: 88%

Task: I'm curious: which viability, T/C was measured for CC1COCCN1c1cc(-c2ccnn2C)c2ccnc(-c3ccn[nH]3)c2n1 (stereo not given) + Cc1[nH]c2ccc(F)cc2c1-c1nc2c3cccnc3c3ncccc3c2[nH]1 tested on 695427-040-R-J1-PDC complex spheroids, viability percent T/C?;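 also: spheroids exposed to compounds for seven days before readout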
Result: 63.6%

Task: I'm curious: which viability, T/C was measured for O=c1[nH]cc(F)c(=O)[nH]1 + CN(C)c1ccc(Nc2c3ccc(NC(=O)CCN4CCCC4)cc3nc3cc(NC(=O)CCN4CCCC4)ccc23)cc1 tested on 695427-040-R-J1-PDC complex spheroids, viability percent T/C?;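 also: spheroids exposed to compounds for seven days before readout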
Result: 90.1%

Task: I'm curious: which viability, T/C was measured for C#Cc1c(F)ccc2cc(O)cc(-c3ncc4c(N5CC6CCC(C5)N6)nc(OCC56CCCN5CC(F)C6)nc4c3F)c12 (stereo not given) + Cc1[nH]c2ccc(F)cc2c1-c1nc2c3cccnc3c3ncccc3c2[nH]1 tested on 695427-040-R-J1-PDC complex spheroids, viability percent T/C?;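 also: spheroids exposed to compounds for seven days before readout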
Result: 91.6%
